Hello, the source for this data is the supplement of paper PMC3353916, in case you need it.

- System: Sindbis virus TE/5'2J-GFP
- TEST METHOD NOTES: percent infected (GFP+ in RFP+ ISG-expressing cells); higher = more infection (less antiviral activity)
- EXPERIMENTAL SETUP: experiment: confirmatory screen 3; BHK/HA-Zeo (control)
MEASUREMENT KIND: percent infected (%)
Form entry: value (%) — number only.

// solved cases for percent infected follow
QUERY SEQUENCE	TARGET DESC	percent infected, %
MRTSYLLLFTLCLLLSEMASGGNFLTGLGHRSDHYNCVSSGGQCLYSACPIFTKIQGTCYRGKAKCCK [DEFB1]	Sindbis virus TE/5'2J-GFP	91.7
MGAQLCFEANAKAPREALRFHAEAKGAQVRLDTRGCIAHRRTTFHDGIVFSQRPVRLGERVALRVLREESGWCGGLRVGFTRLDPACVSVPSLPPFLCPDLEEQSPTWAAVLPEGCALTGDLVRFWVDRRGCLFAKVNAGCRLLLREGVPVGAPLWAVMDVYGTTKAIELLDPTASRLPTPMPWDLSNKAVPEPKATPGEECAICFYHAANTRLVPCGHTYFCRYCAWRVFSDTAKCPVCRWQIEAVAPAQGPPALRVEEGS [LINCR]	Sindbis virus TE/5'2J-GFP	92

// next entry
Measured percent infected (Sindbis virus TE/5'2J-GFP), entry MTLRCLEPSGNGGEGTRSQWGTAGSAEEPSPQAARLAKALRELGQTGWYWGSMTVNEAKEKLKEAPEGTFLIRDSSHSDYLLTISVKTSAGPTNLRIEYQDGKFRLDSIICVKSKLKQFDSVVHLIDYYVQMCKDKRTGPEAPRNGTVHLYLTKPLYTSAPSLQHLCRLTINKCTGAIWGLPLPTRLKDYLEEYKFQV [SOCS2] : 92.3

* * *

- Test system: Sindbis virus TE/5'2J-GFP;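 note: Interferon-defective BHK-21 derivatives, ZAP line overexpressing the rat ZAP N-terminal zinc finger domain fused to Zeocin resistance, GFP scored within live singlet TagRFP+ cells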
- TEST METHOD NOTES: percent infected (GFP+ in RFP+ ISG-expressing cells); higher = more infection (less antiviral activity)
- EXPERIMENTAL SETUP: experiment: confirmatory screen 2; BHK/NZAP-Zeo (ZAP)
MEASUREMENT KIND: percent infected
Kindly report the value followed by its unit.

QUERY SEQUENCE	TARGET DESC	percent infected
MTLNNVTMRQGTVGMQPQQQRWSIPADGRHLMVQKEPHQYSHRNRHSATPEDHCRRSWSSDSTDSVISSESGNTYYRVVLIGEQGVGKSTLANIFAGVHDSMDSDCEVLGEDTYERTLMVDGESATIILLDMWENKGENEWLHDHCMQVGDAYLIVYSITDRASFEKASELRIQLRRARQTEDIPIILVGNKSDLVRCREVSVSEGRACAVVFDCKFIETSAAVQHNVKELFEGIVRQVRLRRDSKEKNERRLAYQKRKESMPRKARRFWGKIVAKNNKNMAFKLKSKSCHDLSVL [GEM]	Sindbis virus TE/5'2J-GFP	94.6%
MDFKIEHTWDGFPVKHEPVFIRLNPGDRGVMMDISAPFFRDPPAPLGEPGKPFNELWDYEVVEAFFLNDITEQYLEVELCPHGQHLVLLLSGRRNVWKQELPLSFRMSRGETKWEGKAYLPWSYFPPNVTKFNSFAIHGSKDKRSYEALYPVPQHELQQGQKPDFHCLEYFKSFNFNTLLGEEWKQPESDLWLIEKCDI [C4orf33]	Sindbis virus TE/5'2J-GFP	94.8%
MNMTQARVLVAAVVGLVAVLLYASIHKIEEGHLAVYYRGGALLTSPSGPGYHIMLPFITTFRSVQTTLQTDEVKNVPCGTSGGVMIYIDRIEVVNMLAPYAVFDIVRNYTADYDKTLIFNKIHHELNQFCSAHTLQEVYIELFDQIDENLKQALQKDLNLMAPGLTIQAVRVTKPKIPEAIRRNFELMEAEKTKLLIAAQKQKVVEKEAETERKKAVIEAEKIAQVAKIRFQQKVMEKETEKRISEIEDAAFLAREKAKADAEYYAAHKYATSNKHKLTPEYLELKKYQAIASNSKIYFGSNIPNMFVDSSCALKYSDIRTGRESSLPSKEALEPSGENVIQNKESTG [ERLIN1]	Sindbis virus TE/5'2J-GFP	94.5%

Alright, here's another sequence for you.
Param item: MEQHFLGCVKRAWDSAEVAPEPQPPPIVSSEDRGPWPLPLYPVLGEYSLDSCDLGLLSSPCWRLPGVYWQNGLSPGVQSTLEPSTAKPTEFSWPGTQKQQEAPVEEVGQAEEPDRLRLQQLPWSSPLHPWDRQQDTEVCDSGCLLERRHPPALQPWRHLPGFSDCLEWILRVGFAAFSVLWACCSRICGAKQP [C5orf39] ; param system: Sindbis virus TE/5'2J-GFP; output percent infected: 89.9%
